assay_name: toxicity (LD50) by the method of Karber and Behrens
Format: in vivo, mice
condition_context: mouse, in vivo; mice, po
measured_parameter: LD50

Below, each entry is followed by its recorded LD50 result.
CC(C)CNc1ccc(OCC(=O)NC(C)Cc2cccc(C(F)(F)F)c2)cc1 (stereo not shown)    > 2000 mg/kg
CCCNc1ccc(OCC(=O)NC(C)Cc2cccc(C(F)(F)F)c2)cc1 (stereo not shown)    > 1600 mg/kg
CCCCCCNc1ccc(OCC(=O)NC(C)Cc2cccc(C(F)(F)F)c2)cc1 (stereo not shown)    > 4000 mg/kg

Please examine the following record next.
stdin: // returns reported LD50 for input CCCCNc1ccc(OCC(=O)NC(C)Cc2cccc(C(F)(F)F)c2)cc1 (stereo not shown)
stdout: > 2000 mg/kg
